Every entry's value here was drawn from the supplement of paper PMC11208160.

Please provide measured recombinant UMI read abundance (log10) for the entries that follow.
# PROTOCOL_DESCRIPTION: recombinant UMI read abundance after kanamycin selection (control-corrected) (log10(CPM+1)); higher = more efficient recombination; extreme values may be limits of the assay; sequences stand for … in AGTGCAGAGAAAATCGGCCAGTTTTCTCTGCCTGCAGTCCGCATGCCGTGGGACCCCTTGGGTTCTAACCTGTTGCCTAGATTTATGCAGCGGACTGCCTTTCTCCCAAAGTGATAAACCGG…AGGTTGGTTTCACT; site = the 11-nt donor;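 further: IS621 bridge recombinase in Escherichia coli cells against a fixed T5 target plasmid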
// return a plain number; no unit text

Q: Fill in the blank: the reported recombinant UMI read abundance (log10) of GTTGTTGCATGGACCGGTTTTCCCGGTAATCCGTATTTGGT (site GTTGTTGCTAC) is ____.
Ans: 1.83

Q: Input CTGCGAACATGGACCGGTTTTCCCGGTAATCCGTATTTGCA (site CTGCGAACTTG)
Ans: 1.38

Q: Input ACACGAACATGGACCGGTTTTCCCGGTAATCCGTATTTGTC (site ACACTAACTGA)
Ans: 0

Q: Input CTGCTTCCATGGACCGGTTTTCCCGGTAATCCGTATTTGCT (site CTGCTGCCTAG)
Ans: 0.00367

Q: Input ACAGTATCATGGACCGGTTTTCCCGGTAATCCGTATTTGCA (site AGTGTATCTTG)
Ans: 1.45

Q: Input CCCATATCATGGACCGGTTTTCCCGGTAATCCGTATTTGTC (site CCCATATCTAA)
Ans: 0.00469

Q: Input CTCTAAGCATGGACCGGTTTTCCCGGTAATCCGTATTTGTC (site CTCTAAGCTGA)
Ans: 1.81

Q: Input AGCCTAGCATGGACCGGTTTTCCCGGTAATCCGTATTTGTT (site GGCCTAGCTAA)
Ans: 0.0159

Q: Input CGGCTGCCATGGACCGGTTTTCCCGGTAATCCGTATTTGCA (site CGGCTGCCTTG)
Ans: 1.18

====

# PROTOCOL_DESCRIPTION: recombinant UMI read abundance after kanamycin selection (control-corrected) (log10(CPM+1)); higher = more efficient recombination; extreme values may be limits of the assay; sequences stand for … in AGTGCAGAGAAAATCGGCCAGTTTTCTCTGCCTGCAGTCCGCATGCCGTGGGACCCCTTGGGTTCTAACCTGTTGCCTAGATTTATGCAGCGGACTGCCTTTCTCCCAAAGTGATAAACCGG…AGGTTGGTTTCACT; site = the 11-nt donor
MEASUREMENT_LABEL: recombinant UMI read abundance (log10)
// return a plain number; no unit text

Q: Fill in the blank: the reported recombinant UMI read abundance (log10) of ATTCGTGCATGGACCGGTTTTCCCGGTAATCCGTATTTGTG (site ATTCGTGCTCA) is ____.
Ans: 0.309

Q: Input TTCGTAACATGGACCGGTTTTCCCGGTAATCCGTATTTGAA (site GCTCGGCCTCC)
Ans: 0.019

Q: Input CTGCTGCCATGGACCGGTTTTCCCGGTAATCCGTATTTGCT (site CTGCTTCCTAG)
Ans: 0

Q: Input GTATGGCCATGGACCGGTTTTCCCGGTAATCCGTATTTGCA (site GGATGGCCTTG)
Ans: 0

Q: Input AGGAAATCATGGACCGGTTTTCCCGGTAATCCGTATTTGGT (site AGGAAATCTAC)
Ans: 1.73
